# Test name: Example 18 Part 2: multiple dose PK (20 mg QID) of 3,4-DAP and 3-N-acetyl metabolite in slow and fast acetylators
# Type: in vivo, human
# Condition set: both sexes, human, plasma, oral, 20 mg, Day 3, fast acetylators, Dose 2 interval, 20 mg QID, arith. mean; read-out: Cmax
Observation type: Cmax

Report Cmax for CC(=O)Nc1cnccc1N [3-N-acetyl amifampridine, N-(4-aminopyridin-3-yl)acetamide] please. 448 ng/mL

---

# Test name: Example 18 Part 2: multiple dose PK (20 mg QID) of 3,4-DAP and 3-N-acetyl metabolite in slow and fast acetylators
# Assay type: in vivo, human
# Condition set: both sexes, human, plasma, oral, 20 mg, metabolite, Day 4, 20 mg single dose, fast acetylators; read-out: Mean AUC0-4
Observation type: AUC(0-t) (ng·h/mL)
Numeric only. Scale: ng·h/mL

Report AUC(0-t) for CC(=O)Nc1cnccc1N [3-N-acetyl amifampridine, N-(4-aminopyridin-3-yl)acetamide] please. 1030
